systemTested: Inadl_1, Q8NI35
Sequence (Q8NI35 113-229): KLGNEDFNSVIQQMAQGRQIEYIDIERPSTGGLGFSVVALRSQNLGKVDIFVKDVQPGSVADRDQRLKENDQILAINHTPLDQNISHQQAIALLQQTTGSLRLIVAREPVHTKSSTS
assayDetails: holdup assay
Set-up: key: below the threshold = too weak to quantify, mostly under pKd 3.1 to 4
testContext: plain residues with an end cap or a label only (N-terminal biotin on a linker: ttds)
valueKind: pKd

1) RLPKIKETTV [FRMPD4, Q14CM0]
below the threshold
2) EVVHTPETSV [SLC16A3, O15427]
below the threshold
3) PVRVCEETSL [OTULIN, Q96BN8]
3.7
4) SKPTRRETEV [HPV35-E6, P27228]
below the threshold
